Source listed as ChEMBL document CHEMBL6153102.

# procedureSummary: AUC (0 to t) in Sprague-Dawley rat at 5 mg/kg, ip measured upto 24 hrs by LC-MS/MS analysis
# Format: ADME, organism-based
# settings: in vivo
readoutName: AUCt (ng·h/mL)
API: value field is a number in ng·h/mL; no unit string.

Form field AUCt, entry `COc1ccc(C(=O)N2CCC3(CCN(C(=O)CN4CCC(COc5cnc(-c6cccc(Cn7nc(-c8cccc(C#N)c8)ccc7=O)c6)nc5)CC4)CC3)CC2)cc1N1CCC(=O)NC1=O` : 655

---

# procedureSummary: AUC (0 to infinity) in Sprague-Dawley rat at 2 mg/kg, iv measured upto 24 hrs by LC-MS/MS analysis
# Format: ADME, organism-based
# settings: in vivo
readoutName: AUC(0-inf) (ng·h/mL)
API: value field is a number in ng·h/mL; no unit string.

Form field AUC(0-inf), entry `COc1ccc(C(=O)N2CCC3(CCN(C(=O)CN4CCC(COc5cnc(-c6cccc(Cn7nc(-c8cccc(C#N)c8)ccc7=O)c6)nc5)CC4)CC3)CC2)cc1N1CCC(=O)NC1=O` : 551

---

# procedureSummary: Half life in Sprague-Dawley rat at 5 mg/kg, ip measured upto 24 hrs by LC-MS/MS analysis
# Assay type: ADME, organism-based
# settings: in vivo
readoutName: half-life (h)
API: value field is a number in h; no unit string.

Form field half-life, entry `COc1ccc(C(=O)N2CCC3(CCN(C(=O)CN4CCC(COc5cnc(-c6cccc(Cn7nc(-c8cccc(C#N)c8)ccc7=O)c6)nc5)CC4)CC3)CC2)cc1N1CCC(=O)NC1=O` : 5.49

---

# testedOn: Protein cereblon/Hepatocyte growth factor receptor (Homo sapiens, UniProt P08581+Q96SW2)
# Sequence (P08581 25-1390 limits assumed): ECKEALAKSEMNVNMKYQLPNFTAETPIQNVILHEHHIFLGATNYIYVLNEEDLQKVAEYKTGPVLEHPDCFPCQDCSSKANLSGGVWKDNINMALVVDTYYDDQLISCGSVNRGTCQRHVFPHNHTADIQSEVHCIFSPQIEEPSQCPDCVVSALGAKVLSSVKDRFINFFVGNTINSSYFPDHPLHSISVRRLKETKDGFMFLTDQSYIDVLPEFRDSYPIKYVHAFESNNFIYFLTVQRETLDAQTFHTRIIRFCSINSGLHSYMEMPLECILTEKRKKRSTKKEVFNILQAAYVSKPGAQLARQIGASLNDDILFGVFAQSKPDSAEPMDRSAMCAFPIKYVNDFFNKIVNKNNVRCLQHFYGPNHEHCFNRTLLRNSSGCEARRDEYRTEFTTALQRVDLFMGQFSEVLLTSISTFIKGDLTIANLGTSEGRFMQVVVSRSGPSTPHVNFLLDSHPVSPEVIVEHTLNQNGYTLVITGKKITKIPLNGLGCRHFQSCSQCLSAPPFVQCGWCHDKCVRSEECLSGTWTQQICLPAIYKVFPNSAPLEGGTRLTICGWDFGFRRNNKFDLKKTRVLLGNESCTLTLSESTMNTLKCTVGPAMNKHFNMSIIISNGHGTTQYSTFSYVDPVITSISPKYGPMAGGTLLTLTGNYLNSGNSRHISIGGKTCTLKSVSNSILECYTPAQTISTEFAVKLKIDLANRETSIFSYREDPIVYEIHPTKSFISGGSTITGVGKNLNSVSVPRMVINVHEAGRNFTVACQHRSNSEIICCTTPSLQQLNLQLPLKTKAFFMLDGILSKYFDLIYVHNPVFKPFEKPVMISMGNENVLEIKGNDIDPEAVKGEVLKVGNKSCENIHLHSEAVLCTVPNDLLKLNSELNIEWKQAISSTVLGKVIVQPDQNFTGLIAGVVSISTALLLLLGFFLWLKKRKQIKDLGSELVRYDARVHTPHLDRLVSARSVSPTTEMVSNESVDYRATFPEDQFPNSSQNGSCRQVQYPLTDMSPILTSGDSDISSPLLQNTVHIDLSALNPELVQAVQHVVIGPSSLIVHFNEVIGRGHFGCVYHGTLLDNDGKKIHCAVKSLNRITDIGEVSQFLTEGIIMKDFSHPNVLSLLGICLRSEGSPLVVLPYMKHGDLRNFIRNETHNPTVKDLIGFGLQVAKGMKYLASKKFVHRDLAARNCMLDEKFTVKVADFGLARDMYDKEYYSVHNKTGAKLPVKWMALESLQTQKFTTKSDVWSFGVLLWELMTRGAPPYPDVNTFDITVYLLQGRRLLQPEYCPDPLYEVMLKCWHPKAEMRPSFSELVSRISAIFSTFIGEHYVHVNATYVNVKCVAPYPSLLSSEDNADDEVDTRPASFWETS
# Sequence (Q96SW2 whole entry partner): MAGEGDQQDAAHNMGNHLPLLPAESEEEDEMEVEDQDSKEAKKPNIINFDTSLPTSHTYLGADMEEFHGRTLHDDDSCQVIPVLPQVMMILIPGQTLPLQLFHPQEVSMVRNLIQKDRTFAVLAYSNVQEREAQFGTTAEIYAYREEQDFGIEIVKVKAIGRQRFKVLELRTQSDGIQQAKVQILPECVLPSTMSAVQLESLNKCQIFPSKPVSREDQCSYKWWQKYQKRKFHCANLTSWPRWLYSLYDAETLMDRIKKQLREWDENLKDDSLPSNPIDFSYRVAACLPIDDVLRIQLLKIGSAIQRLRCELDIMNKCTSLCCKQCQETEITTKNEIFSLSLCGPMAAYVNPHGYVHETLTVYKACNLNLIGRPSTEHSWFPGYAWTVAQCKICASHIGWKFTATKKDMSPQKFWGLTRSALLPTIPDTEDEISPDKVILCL
# procedureSummary: PROTAC activity at c-Met/CRBN in human A549 cells assessed as induction of c-Met degradation at 100 nM incubated for 24 hrs by Western blotting analysis relative to control
# Assay type: cell-based
The source made the active and inactive calls. The calls are words filed in the database; no cut-off is given here.
readoutName: Activity

Below: 5 compounds and their reported Activity.
N#Cc1cccc(-c2ccc(=O)n(Cc3cccc(-c4ncc(OCC5CCN(C(=O)C(c6ccccc6)c6ccccc6)CC5)cn4)c3)n2)c1 : inactive
COc1ccc(C(=O)N2CCC3(CC2)CN(C(=O)CN2CCC(COc4cnc(-c5cccc(Cn6nc(-c7cccc(C#N)c7)ccc6=O)c5)nc4)CC2)C3)cc1N1CCC(=O)NC1=O : inactive
COc1ccc(C(=O)N2CCC3(CCN(C(=O)CN4CCC(COc5cnc(-c6cccc(Cn7nc(-c8cccc(C#N)c8)ccc7=O)c6)nc5)CC4)C3)C2)cc1N1CCC(=O)NC1=O (configuration not stated) : inactive
N#Cc1cccc(-c2ccc(=O)n(Cc3cccc(-c4ncc(OCC5CCN(C(=O)C6c7ccccc7-c7ccccc76)CC5)cn4)c3)n2)c1 : inactive
COc1ccc(C(=O)N2CCC3(CCN(C(=O)CCN4CCC(COc5cnc(-c6cccc(Cn7nc(-c8cccc(C#N)c8)ccc7=O)c6)nc5)CC4)CC3)CC2)cc1N1CCC(=O)NC1=O : inactive

Form field Activity, entry `N#Cc1cccc(-c2ccc(=O)n(Cc3cccc(-c4ncc(OCC5CCN(C(=O)C[C@]67CC8CC(C[C@H](C8)C6)C7)CC5)cn4)c3)n2)c1` : inactive

Form field Activity, entry `COc1ccc(C(=O)N2CCC3(CCN(C(=O)CCCCN4CCC(COc5cnc(-c6cccc(Cn7nc(-c8cccc(C#N)c8)ccc7=O)c6)nc5)CC4)CC3)CC2)cc1N1CCC(=O)NC1=O` : inactive

Form field Activity, entry `COc1ccc(C(=O)N2CCC3(CCN(C(=O)CN4CCC(COc5cnc(-c6cccc(Cn7nc(-c8cccc(C#N)c8)ccc7=O)c6)nc5)CC4)C3)CC2)cc1N1CCC(=O)NC1=O` : inactive

Form field Activity, entry `N#Cc1cccc(-c2ccc(=O)n(Cc3cccc(-c4ncc(OCC5CCN(C(=O)CCCCNC(=O)C(c6ccccc6)c6ccccc6)CC5)cn4)c3)n2)c1` : inactive

Form field Activity, entry `N#Cc1cccc(-c2ccc(=O)n(Cc3cccc(-c4ncc(OCC5CCN(C(=O)CCCCNC(=O)C6c7ccccc7-c7ccccc76)CC5)cn4)c3)n2)c1` : inactive

Form field Activity, entry `N#Cc1cccc(-c2ccc(=O)n(Cc3cccc(-c4ncc(OCC5CCN(C(=O)CCCCNC(=O)C(C6CCCCC6)C6CCCCC6)CC5)cn4)c3)n2)c1` : inactive

Form field Activity, entry N#Cc1cccc(-c2ccc(=O)n(Cc3cccc(-c4ncc(OCC5CCN(C(=O)C6CC7C=CC6C7)CC5)cn4)c3)n2)c1 (configuration not stated) : inactive

---

# procedureSummary: Cmax in Sprague-Dawley rat at 5 mg/kg, ip measured upto 24 hrs by LC-MS/MS analysis
# Assay type: ADME, organism-based
# settings: in vivo
readoutName: Cmax (ng/mL)
API: value field is a number in ng/mL; no unit string.

Form field Cmax, entry `COc1ccc(C(=O)N2CCC3(CCN(C(=O)CN4CCC(COc5cnc(-c6cccc(Cn7nc(-c8cccc(C#N)c8)ccc7=O)c6)nc5)CC4)CC3)CC2)cc1N1CCC(=O)NC1=O` : 104
